Reference for the values: patent US8530472B2

biological target: human mGlu5a receptor (Homo sapiens, UniProt P41594); construct: expressed in transfected cells; experiment: Intracellular Ca2+ mobilization assay (mGlu5 PAM); assay type: cell-based; conditions: HEK293; maximal response in % of the maximal stimulatory effect obtained with saturating concentrations of L-glutamate; HEK-293 human mGlu5a cells; read-out: Eff. (%)
Sequence (P41594 21-1180 isoform P41594-2 limits assumed): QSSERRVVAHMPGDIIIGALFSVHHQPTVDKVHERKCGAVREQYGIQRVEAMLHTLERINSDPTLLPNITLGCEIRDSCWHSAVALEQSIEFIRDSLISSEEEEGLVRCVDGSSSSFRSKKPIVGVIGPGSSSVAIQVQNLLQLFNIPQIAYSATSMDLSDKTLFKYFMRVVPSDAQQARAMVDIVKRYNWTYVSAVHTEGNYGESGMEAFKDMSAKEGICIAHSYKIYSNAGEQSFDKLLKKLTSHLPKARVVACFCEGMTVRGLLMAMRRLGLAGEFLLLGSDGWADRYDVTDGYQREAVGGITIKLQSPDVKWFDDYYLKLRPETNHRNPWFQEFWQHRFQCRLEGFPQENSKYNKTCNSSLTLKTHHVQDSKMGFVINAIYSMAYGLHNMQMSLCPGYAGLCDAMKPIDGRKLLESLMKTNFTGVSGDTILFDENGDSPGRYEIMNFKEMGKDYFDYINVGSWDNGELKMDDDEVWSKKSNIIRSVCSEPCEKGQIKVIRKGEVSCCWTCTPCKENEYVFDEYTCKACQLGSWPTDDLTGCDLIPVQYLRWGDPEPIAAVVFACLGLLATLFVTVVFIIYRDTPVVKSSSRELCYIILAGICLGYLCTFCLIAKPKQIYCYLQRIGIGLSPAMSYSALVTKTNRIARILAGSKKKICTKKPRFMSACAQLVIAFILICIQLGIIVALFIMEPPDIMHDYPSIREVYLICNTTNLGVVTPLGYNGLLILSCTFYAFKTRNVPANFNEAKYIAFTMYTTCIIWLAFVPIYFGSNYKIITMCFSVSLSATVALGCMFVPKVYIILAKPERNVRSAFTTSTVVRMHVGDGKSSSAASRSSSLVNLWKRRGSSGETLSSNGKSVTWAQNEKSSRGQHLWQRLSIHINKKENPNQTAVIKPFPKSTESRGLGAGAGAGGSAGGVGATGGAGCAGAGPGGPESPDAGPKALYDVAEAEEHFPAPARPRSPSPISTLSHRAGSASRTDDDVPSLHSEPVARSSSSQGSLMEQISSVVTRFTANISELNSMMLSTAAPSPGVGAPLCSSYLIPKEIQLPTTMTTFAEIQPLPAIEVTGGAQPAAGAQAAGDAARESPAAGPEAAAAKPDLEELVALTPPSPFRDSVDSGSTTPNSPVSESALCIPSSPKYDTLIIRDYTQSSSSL
Response field class: string, computed from recorded Emax by ranges A (below 50%), B (50% to below 70%), C (70% or more)

[
  {
    "compound": "COCC(=O)Nc1ccc(C#Cc2ccccc2)cn1",
    "assignedLabel": "A"
  },
  {
    "compound": "CC(C)(C)C(=O)Nc1ccc(C#Cc2cccc(Cl)c2)nn1",
    "assignedLabel": "A"
  },
  {
    "compound": "CC(C)(C)C(=O)Nc1ccc(C#Cc2cccc(F)c2)cn1",
    "assignedLabel": "A"
  },
  {
    "compound": "CCCC(C)C(=O)Nc1ccc(C#Cc2ccccc2)cn1 (racemic)",
    "assignedLabel": "C"
  },
  {
    "compound": "CSCC(=O)Nc1ccc(C#Cc2ccccc2)cn1",
    "assignedLabel": "A"
  },
  {
    "compound": "CC(C)CC(=O)Nc1ccc(C#Cc2ccccc2)cn1",
    "assignedLabel": "C"
  },
  {
    "compound": "CCCCC(=O)Nc1ccc(C#Cc2ccccc2)cn1",
    "assignedLabel": "C"
  },
  {
    "compound": "CC(C)(C)C(=O)Nc1ccc(C#Cc2ccccc2)nn1",
    "assignedLabel": "C"
  },
  {
    "compound": "COC(C)(C)C(=O)Nc1ccc(C#Cc2cccc(F)c2)cn1",
    "assignedLabel": "B"
  },
  {
    "compound": "CC(C)(C)C(=O)Nc1ncc(C#Cc2ccccc2)cn1",
    "assignedLabel": "B"
  },
  {
    "compound": "CN(C(=O)C(C)(C)C)c1ncc(C#Cc2ccccc2)cn1",
    "assignedLabel": "C"
  },
  {
    "compound": "CC(C)(C(=O)Nc1ccc(C#Cc2cccc(Cl)c2)cn1)C(F)(F)F",
    "assignedLabel": "A"
  },
  {
    "compound": "CCCC(=O)Nc1ccc(C#Cc2ccccc2)cn1",
    "assignedLabel": "B"
  },
  {
    "compound": "COC(C)(C)C(=O)Nc1ccc(C#Cc2cc(F)ccc2F)cn1",
    "assignedLabel": "A"
  }
]
